Provide the recorded pKd for the entries that follow.
# targetUnderTest: APP-Avi-soluble human LOX-1(61-273) (human, UniProt P78380 61-273)
# protocolDescription: SET, IgG vs soluble human LOX-1
# Experimental: Affinity determination for anti-LOX-1 IgGs using Solution Equilibrium Titration (SET) was basically performed as described in the literature (Friguet et al., 1985 J Immunol Methods 77: 305-319). […] On a pre-blocked MSD plate (Meso Scale Discovery, catalog no. L21SA) biotinylated human or cynomolgus monkey soluble LOX-1 protein was immobilized and washed afterwards. […] The KD values were determined by fitting the data to the following equation: […]
One number for each entry, as −log10 of the molar value.

[
  {
    "binder": "MOR021437 (antibody, V domains shown, IgG (human IgG1f LALA); parent MOR20159 with the printed LCDR3 stretch exchanged) VH: QVQLVQSGAEVKKPGSSVKVSCKASGGTFSDYAISWVRQAPGQGLEWMGGIVPIVGTANYAQKFQGRVTITADESTSTAYMELSSLRSEDTAVYYCARDSSTSYYYYFDYWGQGTLVTVSS VL: DIQMTQSPSSLSASVGDRVTITCRASQDINSWLAWYQQKPGKAPKLLIYQASNLQSGVPSRFSGSGSGTDFTLTISSLQPEDFATYYCQQMKISLITFGQGTKVEIKR",
    "measurement": 11.40
  }
]

Kindly review the next binder as well.
IN: Value lookup for pKd; key = MOR021469 (antibody, V domains shown, IgG (human IgG1f LALA); parent MOR20144 with the printed HCDR2 stretch exchanged) VH: QVQLLESGGGLVQPGGSLRLSCAASGFTFSDYALHWVRQAPGKGLEWVSAISYQGGFIFYADSVKGRFTISRDNSKNTLYLQMNSLRAEDTAVYYCARSPGLTSYHDSWGQGTLVTVSS VL: DIVLTQPPSVSGAPGQRVTISCSGSSSNIGSNYVSWYQQLPGTAPKLLIHSNSHRPSGVPDRFSGSKSGTSASLAITGLQAEDEADYYCQSWDYESERVVFGGGTKLTVLG
OUT: 12.00
